Target System: human Fc (human)
Assay Text: ELISA, negative control
Entries and their optical density values follow.
Report as a plain number; the unit OD is understood.

// worked examples, optical density included
optical density reading for 368_F10 (antibody, V domains shown) VH: EVQLLESGGGLVQPGGSLRLSCAASGFTFSSYGMNWVRQAPGKGLEWVAGINYNSGYTSYADSVKGRFTISRDNSKNTLYLQMNSLRAEDTAVYYCARAANWHDTHLDYWGQGTLVTVSS VL: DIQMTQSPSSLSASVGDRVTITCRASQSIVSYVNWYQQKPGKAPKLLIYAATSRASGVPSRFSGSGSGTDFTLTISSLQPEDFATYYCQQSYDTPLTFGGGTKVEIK : 0.328

optical density reading for 375_F01 (antibody, V domains shown) VH: EVQLLESGGGLVQPGGSLRLSCAASGFTFSSYSMNWVRQAPGKGLEWVSSINYNSGYTGYADSVKGRFTISRDNSKNTLYLQMNSLRAEDTAVYYCARSATWHDTHLDYWGQGTLVTVSS VL: DIQMTQSPSSLSASVGDRVTITCRASQSIVSYLNWYQQKPGKAPKLVIYAATSRASGVPSRFSGSGSGTDFTLTISSLQPEDFATYYCQQSYDNPLTFGGGTKVEIK : 0.166

optical density reading for 371_F10 (antibody, V domains shown) VH: EVQLLESGGGLVQPGGSLRLSCAASGFTFDSYGMNWVRQAPGKGLEWVSGINYNSGYTSYADSVKGRFTISRDNSKNTLYLQMNSLRAEDTAVYYCARGANWHDTALDYWGQGTLVTVSS VL: DIQMTQSPSSLSASVGDRVTITCRASQSISSYLNWYQQKPGKAPKLVIYAVTSRASGVPSRFSGSGSGTDFTLTISSLQPEDFATYYCQQSYESPLTFGGGTKVEIK : 0.299

optical density reading for 371_D04 (antibody, V domains shown) VH: EVQLLESGGGLVQPGGSLRLSCAASGFTFDDYSMNWVRQAPGKGLEWVAGINYNGGYTGYADSVKGRFTISRDNSKNTLYLQMNSLRAEDTAVYYCARGANWHDTHLDYWGQGTLVTVSS VL: DIQMTQSPSSLSASVGDRVTITCRASQSIVSYVNWYQQKPGKAPKLLIYAATSLASGVPSRFSGSGSGTDFTLTISSLQPEDFATYYCQQSYENPLTFGGGTKVEIK : 0.276

optical density reading for 371_E06 (antibody, V domains shown) VH: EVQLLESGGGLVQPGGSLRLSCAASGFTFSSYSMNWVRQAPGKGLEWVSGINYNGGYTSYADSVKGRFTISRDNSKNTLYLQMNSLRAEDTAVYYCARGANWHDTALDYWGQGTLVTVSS VL: DIQMTQSPSSLSASVGDRVTITCRASQSISTYLNWYQQKPGKAPKLLIYAVTSLHSGVPSRFSGSGSGTDFTLTISSLQPEDFATYYCQQSYESPLTFGGGTKVEIK : 0.33

Next binder, optical density to be filled in.
optical density reading for 365_E08 (antibody, V domains shown) VH: EVQLLESGGGLVQPGGSLRLSCAASGFTFDSYSMNWVRQAPGKGLEWVSGINYNSGYTSYADSVKGRFTISRDNSKNTLYLQMNSLRAEDTAVYYCARSATWHDTHLDYWGQGTLVTVSS VL: DIQMTQSPSSLSASVGDRVTITCRASQSIISYVNWYQQKPGKAPKLVIYAATSLASGVPSRFSGSGSGTDFTLTISSLQPEDFATYYCQQSYDLPLTFGGGTKVEIK : 0.298

Data origin: patent US20210380703A1
